Give measured CC50 at 72 h for each item. Keep answers brief.
protocol summary: in vitro
Type: cell-based
particulars: human, CC50 μM (±S.D)
Expressed in µM, but write only the number.

query: Request the reported CC50 at 72 h associated with C=C1CC[C@H](O)C/C1=C/C=C1\CCC[C@]2(C)[C@@H]([C@H](C)CCCC(C)C)CC[C@@H]12 [Vitamin D3]
result: 50.3

query: Same again, this time with C=C1CC[C@H](O)C/C1=C/C=C1\CCC[C@]2(C)[C@@H]([C@H](C)/C=C/[C@H](C)C(C)C)CC[C@@H]12 [Vitamin D2]
result: 53.9

query: Param item: C=C1/C(=C\C=C2/CCC[C@]3(C)[C@@H]([C@H](C)CCCC(C)(C)O)CC[C@@H]23)C[C@@H](O)C[C@@H]1O [1,25(OH)2D3, 1,25-dihydroxyvitamin D3]
result: 17.3

----------
System: Huh7.5.1 cells
protocol summary: in vitro
Assay type: cell-based
particulars: human, 120 h
assay readout: CC50 (µM)
Report the figure in µM without appending any unit label.

query: Requested read-out CC50, target or system Huh7.5.1 cells, entry C=C1CC[C@H](O)C/C1=C/C=C1\CCC[C@]2(C)[C@@H]([C@H](C)/C=C/[C@H](C)C(C)C)CC[C@@H]12 [Vitamin D2]
result: 41.9

query: Now consider C=C1/C(=C\C=C2/CCC[C@]3(C)[C@@H]([C@H](C)CCCC(C)(C)O)CC[C@@H]23)C[C@@H](O)C[C@@H]1O [1,25(OH)2D3, 1,25-dihydroxyvitamin D3] .
result: 22.8

query: Do the same for C=C1CC[C@H](O)C/C1=C/C=C1\CCC[C@]2(C)[C@@H]([C@H](C)CCCC(C)C)CC[C@@H]12 please
result: 54.9

----------
Test system: JC1-Luc2a (infection)
protocol summary: JC1-Luc2a infectious virus luciferase assay
Assay type: cell-based
particulars: Hepatitis C virus, 72 h
assay readout: EC50 (µM)
State the answer as a number, implicitly in µM.

query: Find the recorded EC50 belonging to C=C1/C(=C\C=C2/CCC[C@]3(C)[C@@H]([C@H](C)CCCC(C)(C)O)CC[C@@H]23)C[C@@H](O)C[C@@H]1O [1,25(OH)2D3, 1,25-dihydroxyvitamin D3] and report it.
result: 1.19

query: Another: C=C1CC[C@H](O)C/C1=C/C=C1\CCC[C@]2(C)[C@@H]([C@H](C)CCCC(C)C)CC[C@@H]12 [Vitamin D3]
result: 3.44

query: Same again, this time with C=C1CC[C@H](O)C/C1=C/C=C1\CCC[C@]2(C)[C@@H]([C@H](C)/C=C/[C@H](C)C(C)C)CC[C@@H]12 [Vitamin D2]
result: 5.72

----------
Tested on: BM4-5 FEO (genotype 1b) replicon
protocol summary: Synergy of 1,25
Assay type: cell-based, hepatitis C virus
particulars: Hepatitis C virus, GETYPE1B, BM4-5, read-out: EC50 (used for synergy dosing)
assay readout: EC50 (nM)
Note: unit nM is implicit; provide only the numeric part.

query: Fill in the recorded EC50 for this compound, with BM4-5 FEO (genotype 1b) replicon as test system: C=C1/C(=C\C=C2/CCC[C@]3(C)[C@@H]([C@H](C)CCCC(C)(C)O)CC[C@@H]23)C[C@@H](O)C[C@@H]1O [1,25(OH)2D3, 1,25-dihydroxyvitamin D3]
result: 1000
